assay: protein stability index of a GFP-peptide fusion (yeast GPS) (PSI 1-4); higher = more stable; sorted into four equal gates, so the index is relative within each strain; details: ubr1∆
experimentalReadout: protein stability index

• LLIIRSLKNTDALLNST [YJL039C/NUP192] = 2.45
• LNAELESKLIPQENDLE [SMC3] = 3.15
• NKIRNLELPLCPYCYKK [SIR2] = 1.98
• GDVKNMEDVKIQKEEEP [SWI3] = 3.14
• EHRIRVFFDKRIGQEVD [RPS6A] = 2.87
• QGKHTKFENDELAESTT [LRP1] = 3.21
• ENLADLDYQIGNSESKV [LIN1] = 3.42
• AKSDETKQASSFSFLNR [YLR335W/NUP2] = 3.31
• DSGIGSNGSGIVAAGGG [CSL4] = 3.42
• TDEALFENVKLLAEYDN [MED4] = 2.87
• YFFYASRPEYSCTFWSD [YJL039C/NUP192] = 1.62
• NSITSGGLKSCDLDFPL [YDL116W/NUP84] = 3.2
• QLKHTKLALAENDTNMN [SMC4] = 3.17
• HHDGKLWNLNAYRTDVI [PRP8] = 3.07
• TRQASDLASSKEVLAKI [RPN5] = 2.85
• YLKGATGHSQGLVTAVA [FAS1] = 3.86
• EFLINEGTPINNVYFAA [RPN14] = 1.94
• LNELKAIKDKLEQDLHF [YIL149C/MLP2] = 3.24
• ILVMETSEEQTKFLAKN [SWP82] = 3
• AIYNNPTRIRTKSSKEF [RRI2] = 1.55
• AFGVSVAFLDNDLGKFI [RPN7] = 3.28
• LDKDRKALIQRKGGKLE [RPL26A] = 2.97
• LTNQQPKNLSTPSTSSN [CSE2] = 2.79
• SPLYMDTETFDTVNSAL [YML103C/NUP188] = 3.21
• YITARIMAKRPFDKKSN [FAS1] = 2.86
• QQQIIKIRITLTSTKVK [RPS20] = 2.71
• CLSDYTKKISNFNSSLH [YJL039C/NUP192] = 1.25
• TNTSKQFQKARNNVMLL [SRB8] = 2.92
• MKRMVAQWERSKLSQEF [SNF12] = 3.21
• LGIEAARYSIIREINYT [RPO31] = 1.53
• LGHTKAALGEVASMELK [SIR2] = 2.98
• KTTPNTASSEASAGSKE [YMR153W/NUP53] = 3.12
• IPVGLMAQENSMERKVQ [MCD1] = 3.19
• EVIGYIAAGTYGKVYKA [SSN3] = 1.9
• SSSTQNVFVILMDKCLP [DIS3] = 1.95
• SLFELIVPIFQLISAVL [YJL039C/NUP192] = 1.85
• SQLPITPMTRISELPPQ [YGL172W/NUP49] = 2.71
• LESEAQKKATMSAEEAL [RPC34] = 3.58

###

test: protein stability index of a GFP-peptide fusion (yeast GPS) (PSI 1-4); higher = more stable; sorted into four equal gates, so the index is relative within each strain; details: san1∆
experimentalReadout: protein stability index

- AELKLAGEFGLKNKKEI [RPS9A]: 3.2
- NLINLSIGASIADLASL [YCS4]: 2.39
- NYGIVELDPECQLQNSD [RRP43]: 2.93
- ETISKLNEYKRETLVKT [SMC2]: 2.19
- EKKLMQDNKQLYQIWIV [YDL116W/NUP84]: 2.72
- LAFDKLNVPVFQIVIEP [ARP7]: 1.8
- EIMEERNVEQKLNELDE [NNF1]: 3.13
- EGWPKFQDTLYKKIPLL [QCR10]: 1.85
- SLAKSSALWSSRKGIAF [ECM29]: 1.83
- LIELLEKLDVSRSSVCV [YCG1]: 2.05
- EQKITEIEDGQDGGVTP [RPO21]: 3.37

###

Reported protein stability index values are given for each entry in this list.
assay: protein stability index of a GFP-peptide fusion (yeast GPS) (PSI 1-4); higher = more stable; sorted into four equal gates, so the index is relative within each strain; conditions: san1∆
experimentalReadout: protein stability index

- KKFDISNDNLDLISEIL [MED1]: 2.84
- MSESSDISAMQPVNPKP [SMX3]: 3.4
- EFANFELKDICSFAVTK [YML103C/NUP188]: 2.22
- RNAEFKVSKNSTSFKNP [YMR153W/NUP53]: 2.14
- FDYSVILNSIPAAANLD [YJL039C/NUP192]: 1.71
- SVSGSPRPSYSSRPNVN [YMR129W/POM152]: 2.45
- EARFDVLITSYEMVIRE [ISW2]: 1.88
- RQPSLHRLSILSHYAKI [RPO31]: 1.36
- VGLSQPDAKIQVRRDIP [YMR129W/POM152]: 2.51
- FGKTTANLPANSSTSPA [YLR335W/NUP2]: 2.96
- ELTKSLSIAFENGDYAA [RPN12]: 3.24
- IEDPNLSSNITFDGKPT [YMR153W/NUP53]: 3.12
- LNSMEKDRISHEVVQDD [PCI8]: 3.01
- MHSYFIFKDLVTVFLFM [COB]: 1.36
- QQQIIKIRITLTSTKVK [RPS20]: 1.59
- KGKDFEITAKEVYDFTH [FAS1]: 2.97
- FAAIPEQGIELEHIDSK [FAS2]: 3.39
- YKMVQEQLSKQRDLYKR [SMC2]: 2.45
- EEIFFKSVRILKNKAEY [RPC40]: 3.06
- QGRRLGESIMSEEPTDF [MCD1]: 3.32
- DLAVCATIIGIISTAIA [ECM29]: 1.99
- DGLGNVVDFTSLPEELK [YMR129W/POM152]: 3.3
- NRTFTDPPFRIEEQGWG [TAF14]: 3.11
- HILLTELLAYQFASPVR [FAS2]: 1.81
- VTKDTKKYSSKNKYGEI [SRP68]: 2.52
- MTPLLVNCLELLINTNF [PCI8]: 1.48
- LANRSKENFILDSLMKT [YJL039C/NUP192]: 3.03
- SLASCLRSTEYSKSFEQ [POP1]: 2.89
- CRKCYARLPPRATNCRK [RPL40A]: 3.13
- WVQLVQIIVTDGKLEPS [YJL039C/NUP192]: 1.19
- EGRSFTKAIEDAKKEMK [YLR335W/NUP2]: 2.83
- LSKFFFFIFVFNFVLLG [COB]: 1.09
- VKKVVKEQTEAAKKSEK [RPL34A]: 3.19
- SLQRSKSSFVKESAVIS [SMC1]: 2.17

###

assay: protein stability index of a GFP-peptide fusion (yeast GPS) (PSI 1-4); higher = more stable; sorted into four equal gates, so the index is relative within each strain; conditions: pdr5∆
Reported protein stability index values are given for each entry in this list.
experimentalReadout: protein stability index

* FRGARKNKGLVVSPYDY [DIB1] | 2.54
* NKHLTTLVEIFLERKCV [SSN3] | 2.73
* KLLAISKFNNADDVFTG [RPC31] | 2.9
* SVLDEQEQYQTNTFEGS [SNU114] | 3.22
* EMGKTDKSTKTAEAPTL [YOR098C/NUP1] | 3.25
* LRQQQQQQDQPEQSEQP [RPN10] | 3.28
* VTKDTKKYSSKNKYGEI [SRP68] | 2.66
* YKVDNMTRILPQQSRYI [RPN2] | 3.03
* KRKYDEITHPPSTTDDE [SWI3] | 3.23
* LKSSLADVLSILAMTYS [RPN1] | 2.02
* HAKRKTVTSLDVVYALK [HHF1] | 3.57
* YKMVQEQLSKQRDLYKR [SMC2] | 3.03
* LQAQDRAHRIGQKNEVR [SNF2] | 3.17
* DNNYNTAETNNKVHETS [YDL088C/ASM4] | 2.92
* IDDKTQNDELTMGMRAL [DIS3] | 2.83
* PRLGSIDRNLKCQTCQE [RPO21] | 1.7
* YDLMAPNGHISTKKIQV [YMR129W/POM152] | 2.06
* KTPVFTTGGDYILSLVS [YMR129W/POM152] | 2.13
* QQQQDLQQQQQVVTTVA [SNF6] | 1.87
* NQVGTDELILPLPSHAL [YDL116W/NUP84] | 3.09
* FEQPSQREEAKKVVKKA [RPL27A] | 3.28
* VIDIGASGCNVTPIIDG [ARP7] | 3.03
* VSEVAKIMQEATQSGGV [PRE8] | 2.77
* VQLKDANSQIQAYEEII [YIL149C/MLP2] | 3.5
* VLPAATKKKSKFMTNST [ARP9] | 2.78
* NITDYETHPDNSNKQAV [BRR2] | 3
* SKHNERNKSAANNDINS [YDL088C/ASM4] | 3.21
* VSGDLNPIHVSRHFASY [FAS1] | 2.88
* MINGRKLIKFETRNEDD [FAS1] | 2.81
* DDEKNDKQARKQRTKKE [SNF2] | 3.53
* ALVAYTPTDVIGVVSLT [RRP6] | 1.57
* FAAIPEQGIELEHIDSK [FAS2] | 2.85
* PDISRAVINIRDDGKRE [RPO31] | 2.29
* ISSLIGGFEYFLQPLLL [NUT1] | 1.27

Origin of the recorded values: the supplement of paper PMC9732359
